Target: T1, human CCR8 (human, UniProt P51685 1-355)
T1 construct: the assay field says which; also called hCCR8; huCCR8
Experiment: flow cytometry, CHO-huCCR8.Gna15 cells, relative to rb.Ab5
Experimental: Evaluation of CCR8 binding of the humanized variants with a hIgG1 Fc involved screening by flow cytometry, and comparing the relative EC₅₀ and MFI on human CCR8 CHO cells to the parental rabbit antibodies. […] Cells were washed twice with FACS buffer, and re-suspended in FACS buffer with propidium iodide (0.5 ug/ml) and analyzed with iQue3 (Sartorius).
Reported Relative EC50 is given for each of the following binders.

Binder | Relative EC50
hu.Ab5.H6L1 (antibody, human IgG1, kappa, V domains shown) VH: EQQLLESGGGLVQPGGSLRLSCAVSGIDLSTYAMGWVRQAPGKGLEWIGLIHRSGRTYYATWAKGRFTISRDSSKTTVYLQMNSLRAEDTAVYFCTRSYPDYSATASIWGPGTTVTVSS VL: DIQVTQSPSSLSASVGDRVTITCQASENIANALAWYQQKPGKPPKFLIYGASNLASGVPSRFSGSGSGTDFTFTISSLQPEDIATYYCQQAYYGNSFVEGTFGGGTKVEIKR | 2.4 ratio
hu.Ab5.H9L1 (antibody, human IgG1, kappa, V domains shown) VH: EQQLLESGGGLVQPGGSLRLSCAVSGIDLSTYAMGWVRQAPGKGLEWIGLIHRSGRTYYATWAKGRFTISKDSSKTTLYLQMNSLRAEDTAVYFCTRSYPDYSATASIWGPGTTVTVSS VL: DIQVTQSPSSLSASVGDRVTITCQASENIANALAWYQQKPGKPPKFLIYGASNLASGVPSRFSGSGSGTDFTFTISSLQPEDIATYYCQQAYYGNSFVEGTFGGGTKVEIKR | 1.3 ratio

The origin of these recorded values is patent US20230049152A1.
